Test system: purple nutsedge
method: Test B pre/postemergence purple nutsedge
Assay type: in vivo, Cyperus rotundus
setup conditions: Rate 500 g/ha, Postemergence; scale 0 to 10, 0 no effect, 10 complete control

{"compound structure string": "CC(C)N(C(=O)n1oc(=O)n(CCC2OCCCO2)c1=O)c1ccc(F)cc1", "Nutsedge plant response rating": 6}
{"compound structure string": "Cc1ccccc1Cn1c(=O)on(C(=O)N(c2ccc(F)cc2F)C(C)C)c1=O", "Nutsedge plant response rating": 0}
{"compound structure string": "Cc1nc(C)c(Cn2c(=O)on(C(=O)N(c3ccc(F)cc3)C(C)C)c2=O)s1", "Nutsedge plant response rating": 0}
{"compound structure string": "Cc1ccccc1-n1c(=O)on(C(=O)N(c2cc(F)cc(F)c2)C(C)C)c1=O", "Nutsedge plant response rating": 0}

----------
Test system: rape
method: Test B pre/postemergence rape
Assay type: in vivo, Brassica napus
setup conditions: Rate 500 g/ha, Postemergence; scale 0 to 10, 0 is no effect, 10 is complete control
Description: […] At the same time, these crop and weed species were also treated with postemergence applications of test chemicals formulated in the same manner. […] Treated plants and controls were maintained in a greenhouse for twelve to sixteen days, after which all species were compared to controls and visually evaluated. […]
Item-by-item account of Rape plant response rating

{"molecule": "CC(C)N(C(=O)n1oc(=O)n(CC(F)F)c1=O)c1ccc(F)cc1 [Compound 710]", "Rape plant response rating": 5}
{"molecule": "Cc1nc(C(C)n2c(=O)on(C(=O)N(c3ccc(F)cc3)C(C)C)c2=O)sc1C (stereo not drawn) [Compound 757]", "Rape plant response rating": 0}
{"molecule": "CC[C@H](C)n1c(=O)on(C(=O)N(c2ccc(Cl)cc2)C(C)C)c1=O [Compound 664]", "Rape plant response rating": 3}
{"molecule": "CC(=O)OCC(CCl)n1c(=O)on(C(=O)N(c2ccc(F)cc2F)C(C)C)c1=O (racemic) [Compound 708]", "Rape plant response rating": 0}
{"molecule": "C#CCn1c(=O)on(C(=O)N(c2ccccc2)C(C)C)c1=O [Compound 754]", "Rape plant response rating": 0}
{"molecule": "C#CC(C)n1c(=O)on(C(=O)N(c2ccc(F)cc2F)C(C)C)c1=O (racemic) [Compound 657]", "Rape plant response rating": 3}

----------
Test system: wheat
method: Test B pre/postemergence wheat
Format: in vivo, Triticum aestivum
setup conditions: Preemergence, Rate 250 g/ha
Protocol: […] At the same time, these crop and weed species were also treated with postemergence applications of test chemicals formulated in the same manner. […] Treated plants and controls were maintained in a greenhouse for twelve to sixteen days, after which all species were compared to controls and visually evaluated. […]
readout type: Wheat plant response rating (0 to 10 scale)

{"compound": "CC(C)N(C(=O)n1oc(=O)n(CCC2OCCCO2)c1=O)c1ccccc1 [Compound 561]", "quantitative result": 6}
{"compound": "CC(C)N(C(=O)n1oc(=O)n(CC2CCC2)c1=O)c1ccc(F)cc1F [Compound 521]", "quantitative result": 0}
{"compound": "CC(C)N(C(=O)n1oc(=O)n(CCCC(F)(F)F)c1=O)c1ccc(F)cc1F [Compound 526]", "quantitative result": 8}
{"compound": "CC(C)N(C(=O)n1oc(=O)n(C[Si](C)(C)C)c1=O)c1ccccc1 [Compound 577]", "quantitative result": 0}
